tested target: T1, human CD3 protein (human, UniProt P07766 23-126; P04234 22-105)
T1 construct: ELISA coating protein; also called Human CD3D & CD3E Heterodimer Protein
T1 sequence (P07766 23-126 limits assumed, chain 1 of 2): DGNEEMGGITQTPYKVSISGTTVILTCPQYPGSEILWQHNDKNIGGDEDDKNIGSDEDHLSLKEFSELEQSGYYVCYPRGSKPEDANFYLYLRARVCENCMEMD
T1 sequence (P04234 22-105 limits assumed, chain 2 of 2): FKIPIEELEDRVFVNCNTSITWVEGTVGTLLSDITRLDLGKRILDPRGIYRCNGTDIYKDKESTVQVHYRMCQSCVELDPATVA
assay method text: ELISA, plate-coated CD3;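 note: binding to plate-immobilized human CD3 protein, bound antibody detected with peroxidase-labelled anti-human IgG and TMB, read as absorbance at 450 nm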
measured quantity: log10(EC50) (log10 of the value in ng/mL)
Remember, log10 of EC50, in ng/mL.

Before answering, review these 2 worked examples.
INPUT: Which log10(EC50) reading was recorded for the binder Hu192A7B9-2 (antibody, V domains shown, humanized mAb) VH: EVQLQESGPGLVKPSETLSLTCTVSGGSISSYNVHWVRQPPGKGLEWIGRMRYNGDTSYNSALKSRVTISRDTSKNQFSLKLSSVTAADTAVYYCARGPRGGYYSALFDYWGQGTMVTVSS VL: DIQMTQSPSSLSASVGDRVTITCKASQNINRYLNWYQQKPGKAPKLLIYIANSLQTGVPSRFSGSGSGTDFTLTISSLQPEDFATYYCLQHNSWYTFGQGTKLEIK ?
OUTPUT: 2.29

INPUT: Which log10(EC50) reading was recorded for the binder Hu153A6B1-13 (antibody, V domains shown, humanized mAb) VH: EVQLQESGPGLVKPSETLSLTCTVSGGSISSYNIHWIRQPPGKGLEWIGRIRYNGDTSYNSALKSRVTISVDTSKNQFSLKLSSVTAADTAVYYCARGPYGGSREPLFDYWGQGTMVTVSS VL: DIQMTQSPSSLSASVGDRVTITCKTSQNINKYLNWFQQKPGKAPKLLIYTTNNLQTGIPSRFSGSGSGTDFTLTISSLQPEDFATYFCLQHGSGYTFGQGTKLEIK ?
OUTPUT: 0.80

# batch size: 3; output log10(EC50) per entry
1. Hu153A6B1-14 (antibody, V domains shown, humanized mAb) VH: EVQLQESGPGLVKPSETLSLTCTVSGGSISSYNIHWVRQPPGKGLEWIGRIRYNGDTSYNSALKSRVTISRDTSKNQFSLKLSSVTAADTAVYYCARGPYGGSREPLFDYWGQGTMVTVSS VL: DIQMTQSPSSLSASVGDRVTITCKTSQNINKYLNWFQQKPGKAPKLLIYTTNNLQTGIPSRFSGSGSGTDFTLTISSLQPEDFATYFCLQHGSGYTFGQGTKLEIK
2. Hu155A9B1-9 (antibody, V domains shown, humanized mAb) VH: EVQLQESGPGLVKPSETLSLTCTVSGGSISSYNVHWVRQPPGKGLEWMGRVRYNGDTSYNSALKSRLTISRDTSKNQFSLKLSSVTAADTAVYYCARGPYGGSSEPLFDYWGQGTMVTVSS VL: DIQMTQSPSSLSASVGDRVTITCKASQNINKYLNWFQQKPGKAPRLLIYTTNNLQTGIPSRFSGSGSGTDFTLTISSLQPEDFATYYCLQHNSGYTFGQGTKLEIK
3. Hu192A7B9-23 (antibody, V domains shown, humanized mAb) VH: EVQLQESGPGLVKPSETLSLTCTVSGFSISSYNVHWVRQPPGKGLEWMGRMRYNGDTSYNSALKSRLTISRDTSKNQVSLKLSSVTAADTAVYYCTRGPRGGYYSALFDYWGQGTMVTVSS VL: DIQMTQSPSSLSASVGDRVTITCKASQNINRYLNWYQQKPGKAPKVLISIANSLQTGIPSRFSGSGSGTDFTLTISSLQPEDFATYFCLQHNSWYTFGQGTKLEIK

OUTPUT:
1: 0.49; 2: 0.80; 3: 1.20
